molecular target: CYP2C9 (Homo sapiens)
Sequence (P11712 whole entry): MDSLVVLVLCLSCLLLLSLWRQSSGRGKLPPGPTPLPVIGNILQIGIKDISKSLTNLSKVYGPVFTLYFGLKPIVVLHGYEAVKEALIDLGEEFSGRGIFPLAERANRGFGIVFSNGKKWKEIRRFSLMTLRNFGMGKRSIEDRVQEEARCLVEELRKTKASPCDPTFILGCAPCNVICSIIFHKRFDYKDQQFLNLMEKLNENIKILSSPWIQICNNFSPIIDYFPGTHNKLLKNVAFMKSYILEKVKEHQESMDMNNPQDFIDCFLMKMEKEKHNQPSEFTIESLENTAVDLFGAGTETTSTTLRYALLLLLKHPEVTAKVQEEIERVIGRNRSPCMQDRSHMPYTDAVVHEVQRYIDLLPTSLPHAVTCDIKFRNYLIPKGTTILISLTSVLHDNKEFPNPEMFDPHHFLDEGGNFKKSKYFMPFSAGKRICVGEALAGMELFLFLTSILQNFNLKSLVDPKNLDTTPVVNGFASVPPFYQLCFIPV
readout-type: IC50

Value lookup for IC50; key = Cn1cc2c(n1)c(=O)n(-c1cccnc1)c1cc(Cl)ccc21
> 10 µM

IC50 for Cn1cc2c(n1)c(=O)n(-c1cccc3[nH]ncc13)c1nc(C(F)(F)F)ccc21 ?
> 30 µM

###

target: MAT2A recombinant protein (Homo sapiens, UniProt P31153); assay: MAT2A inhibitory activity (malachite green colorimetric enzyme assay); assay type: biochemical; settings: read-out: MAT2A Inhibition
Sequence (P31153 whole entry): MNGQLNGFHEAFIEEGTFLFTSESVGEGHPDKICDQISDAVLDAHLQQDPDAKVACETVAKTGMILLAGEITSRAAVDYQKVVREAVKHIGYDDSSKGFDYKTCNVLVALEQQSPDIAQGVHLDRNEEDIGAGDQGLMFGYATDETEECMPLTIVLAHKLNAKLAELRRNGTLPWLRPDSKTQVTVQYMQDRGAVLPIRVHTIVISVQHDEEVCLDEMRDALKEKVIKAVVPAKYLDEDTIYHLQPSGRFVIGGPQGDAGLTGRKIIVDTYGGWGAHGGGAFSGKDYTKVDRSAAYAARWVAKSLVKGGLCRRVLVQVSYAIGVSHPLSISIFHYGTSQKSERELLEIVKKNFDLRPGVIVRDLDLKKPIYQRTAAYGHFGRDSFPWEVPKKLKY
So I've got a bunch of compounds here, and I need their pIC50 values.
Scale note: pIC50 = -log10(concentration in M).

Quick one: pIC50 of Cn1cc2c(n1)c(=O)n(-c1ccc(F)c(O)c1)c1nc(C(F)(F)F)ccc21 ?
7.43

Which pIC50 is reported for this compound? O=c1c2nn(C(F)F)cc2c2cc(F)c(Cl)cc2n1-c1cccc2[nH]ncc12
7.77

Which pIC50 is reported for this compound? Cn1cc2c(n1)c(=O)n(-c1cccc3[nH]ncc13)c1nc(C(F)(F)F)c(F)cc21
8.05

So what does the record say about pIC50 for Cn1cc2c(n1)c(=O)n(-c1cccc3[nH]ncc13)c1nc(C(F)(F)F)ccc21 ?
7.83

Recorded pIC50 for Cn1cc2c(n1)c(=O)n(-c1cccc3[nH]ncc13)c1cc(Cl)c(C#N)cc21 , please?
7.55

Please look up its pIC50: O=c1c2n[nH]cc2c2cc(F)c(Cl)cc2n1-c1cccnc1C1CC1
8.22

Which measured pIC50 value corresponds to CN1CCN(c2ccc(Cn3cc4c(n3)c(=O)n(-c3cccc5[nH]ncc35)c3cc(Cl)c(F)cc43)cn2)CC1 ?
7.09

Request the reported pIC50 associated with Cn1cc2c(n1)c(=O)n(-c1cncc(O)c1)c1nc(C(F)(F)F)ccc21
7.28

For the compound shown here, Cn1cc2c(n1)c(=O)n(Cc1ccn[nH]1)c1cc(Cl)ccc21 , give the reported pIC50.
7.38

What value of pIC50 has been reported for the following compound? COc1cc2c3cn(C)nc3c(=O)n(-c3cccnc3)c2cc1Cl
7.21

Could you tell me which pIC50 is on file for Cn1ccc(Cn2ncc3c4ccc(Cl)cc4n(-c4cccnc4)c(=O)c32)n1 ?
7.00

Report pIC50 for Cn1nc2c(=O)n(-c3cccnc3)c3cc(Cl)ccc3c2c1C(F)F please.
7.11

Query: pIC50; subject: CCn1cc2c(n1)c(=O)n(-c1cccc(F)c1)c1cc(Cl)ccc21
7.41

Which value of pIC50 has been reported for Cc1c2c(nn1C(F)F)c(=O)n(-c1cccnc1)c1nc(C(F)(F)F)ccc21 in the records?
7.72

Look up pIC50: COc1ccc(-n2cc3c(n2)c(=O)n(-c2ccccc2)c2nc(C(F)(F)F)ccc32)cc1
7.11

What value of measured pIC50 is listed for COc1ccc(-n2cc3c(n2)c(=O)n(-c2ccccc2)c2nc(C(F)(F)F)ccc32)cn1 ?
7.40

Would you kindly share the measured pIC50 for Cn1cc2c(n1)c(=O)n(-c1cccnc1)c1cc(Cl)cc(F)c21 ?
7.17

Can you share its pIC50? I mean this compound: O=c1c2[nH]ncc2c2ccc(Cl)cc2n1-c1cccnc1
7.76

Would you mind telling me what pIC50 value was observed for CCn1nc2c(=O)n(-c3cccnc3)c3cc(Cl)ccc3c2c1C ?
7.62

What value of measured pIC50 is listed for Cc1ncccc1-n1c(=O)c2[nH]ncc2c2ccc(OC(F)(F)F)cc21 ?
7.22

Looking for the measured pIC50 of O=c1c2c(cnn2CC(F)F)c2ccc(Cl)cc2n1-c1cccnc1 , can you help?
6.66

Which pIC50 value is on record for COc1ccc(-n2c(=O)c3nn(C)cc3c3ccc(C(F)(F)F)nc32)cc1 ?
6.55

Data request, read-out pIC50, for CCn1cc2c(n1)c(=O)n(-c1ccccc1)c1cc(Cl)ccc21
6.98

Given N#Cc1cc2c3cn(C(F)F)nc3c(=O)n(-c3cccc4[nH]ncc34)c2cc1Cl , state its recorded pIC50.
7.06

Would you mind telling me what pIC50 value was observed for O=c1c2n[nH]cc2c2ccc(C(F)(F)F)nc2n1-c1cccnc1 ?
7.72

// lookup pIC50 for Cn1cc2c(n1)c(=O)n(-c1cccc3ccccc13)c1cc(Cl)c(F)cc21
7.24

Quick one: pIC50 for Cc1ncccc1-n1c(=O)c2[nH]ncc2c2ccc(Cl)cc21 ?
7.26

I am curious: what pIC50 value has been reported for Cn1cc2c(n1)c(=O)n(-c1cccc(O)c1)c1cc(OC(F)(F)F)ccc21 ?
7.01

Which pIC50 value is on record for Cn1cc2c(n1)c(=O)n(-c1ccc3ncoc3c1)c1nc(C(F)(F)F)ccc21 ?
6.91

###

For each entry below, report its AUC value.
test: Pharmacokinetic test in mice (IV and PO); format: in vivo; settings: mouse, plasma; BALB/c mice, PO 10 mg/kg

What value of measured AUC is listed for [2H]C([2H])([2H])n1cc2c(n1)c(=O)n(-c1cccc3[nH]ncc13)c1nc(C(F)(F)F)ccc21 ?
331 µM·h

Requested read-out: AUC. Entry: Cn1cc2c(n1)c(=O)n(-c1cccc3[nH]ncc13)c1cc(Cl)ccc21
683 µM·h

Which measured AUC value corresponds to Cn1cc2c(n1)c(=O)n(-c1cccnc1)c1cc(Cl)ccc21 ?
26.8 µM·h

Dear colleague, I am looking for the recorded AUC of the following molecule: Cn1cc2c(n1)c(=O)n(-c1cccnc1)c1nc(C(F)(F)F)ccc21
65 µM·h

###

For each entry below, report its AUC value.
assay: Pharmacokinetic test in rats (IV and PO); type: in vivo; settings: rat, plasma; SD rats, IV 1 mg/kg
# unit: µM·h | format: bare number

Looking for the measured AUC of Cn1cc2c(n1)c(=O)n(-c1cccnc1C1CC1)c1cc(Cl)c(F)cc21 [Compound B340] , can you help?
10.2

// query AUC value for entry Cn1cc2c(n1)c(=O)n(-c1cccc3[nH]ncc13)c1cc(Cl)c(F)cc21 [Compound B257]
177

What value of AUC has been recorded for this entry: O=c1c2n[nH]cc2c2cc(F)c(Cl)cc2n1-c1cccnc1C1CC1 [Compound B425]
21

I have this compound here, Cn1cc2c(n1)c(=O)n(-c1cccnc1)c1cc(Cl)ccc21 [Compound B12] , and I need its recorded AUC.
18.9

Need AUC, item CCn1cc2c(n1)c(=O)n(-c1cccnc1)c1cc(Cl)ccc21 [Compound B3]
7.81

Quick one: AUC for COc1ccc(Cn2cc3c(n2)c(=O)n(-c2cccnc2)c2cc(Cl)ccc32)cc1 [Compound B28] ?
7.6

Recorded AUC of CCn1cc2c(n1)c(=O)n(-c1cccc(F)c1)c1cc(Cl)ccc21 [Compound B4] , please.
2.5

Return reported AUC; argument: Cn1cc2c(n1)c(=O)n(-c1cccc3[nH]ncc13)c1nc(C(F)(F)F)ccc21 [Compound B181]
120

###

biological target: MAT2A recombinant protein (Homo sapiens, UniProt P31153); test: MAT2A inhibitory activity (malachite green colorimetric enzyme assay); type: biochemical; conditions: read-out: MAT2A Inhibition
readout-type: IC50 (nM)
Value expressed in nM; do not type the unit.

Please provide the recorded IC50 for Cn1cc2c(n1)c(=O)n(-c1c(F)cccc1F)c1nc(C(F)(F)F)ccc21 , tested on MAT2A recombinant protein (Homo sapiens, UniProt P31153).
20

For MAT2A recombinant protein (Homo sapiens, UniProt P31153), provide IC50 of Cc1c2c(nn1C(F)F)c(=O)n(-c1cccc3[nH]ncc13)c1nc(C(F)(F)F)ccc21 please.
23.7

Please provide the recorded IC50 for Cn1cc2c(n1)c(=O)n(-c1cccc3[nH]nc(F)c13)c1cc(Cl)c(F)cc21 , tested on MAT2A recombinant protein (Homo sapiens, UniProt P31153).
10

Enter reported IC50 observed with MAT2A recombinant protein (Homo sapiens, UniProt P31153) for Cn1cc2c(n1)c(=O)n([C@@H]1CCCOC1)c1cc(Cl)ccc21
237

Query for MAT2A recombinant protein (Homo sapiens, UniProt P31153): what IC50 does the record show for O=c1c2nn(CC3CC3)cc2c2ccc(C(F)(F)F)nc2n1-c1cccnc1 ?
53.7

Notebook: pull reported IC50 for MAT2A recombinant protein (Homo sapiens, UniProt P31153), entry Cn1cc2c(n1)c(=O)n(-c1cccc(C(N)=O)c1)c1nc(C(F)(F)F)ccc21
25.5

Could you share what IC50 was measured for Cn1nc2c(=O)n(-c3cccnc3)c3cc(Cl)ccc3c2c1C(F)(F)F , tested on MAT2A recombinant protein (Homo sapiens, UniProt P31153)?
349

Hello, I am looking for reported IC50 with MAT2A recombinant protein (Homo sapiens, UniProt P31153) for Cn1cc2c(n1)c(=O)n(-c1cccc3[nH]nc(Br)c13)c1cc(Cl)c(F)cc21 . Could you help?
7.4

// lookup IC50 | system=MAT2A recombinant protein (Homo sapiens, UniProt P31153) | key= Cn1cc2c(n1)c(=O)n(-c1cccnc1Cl)c1nc(C(F)(F)F)ccc21
45.1

Form field: IC50 recorded for Cn1cc2c(n1)c(=O)n(Cc1ccn[nH]1)c1nc(C(F)(F)F)ccc21 with MAT2A recombinant protein (Homo sapiens, UniProt P31153) (enter value)
53.7

Provide the documented IC50 with MAT2A recombinant protein (Homo sapiens, UniProt P31153) as the system for Cn1cc2c(n1)c(=O)n(-c1cccnc1C(F)(F)F)c1cc(Cl)ccc21
45.1

Please provide the recorded IC50 for Cn1cc2c(n1)c(=O)n([C@H]1CC[C@H](O)CC1)c1cc(Cl)ccc21 , tested on MAT2A recombinant protein (Homo sapiens, UniProt P31153).
483

Query the reported IC50 for MAT2A recombinant protein (Homo sapiens, UniProt P31153); item: COc1cc(Cl)cc2c1c1cn(C)nc1c(=O)n2-c1cccnc1
24.6

Request: IC50, test system MAT2A recombinant protein (Homo sapiens, UniProt P31153), entry CN1CCN(c2nccc(Cn3cc4c(n3)c(=O)n(-c3cccc5[nH]ncc35)c3cc(Cl)c(F)cc43)n2)CC1
100

Missing value: IC50, MAT2A recombinant protein (Homo sapiens, UniProt P31153), entry Cn1cc2c(n1)c(=O)n(-c1cccc3[nH]ncc13)c1cc(C(F)(F)F)c(C#N)cc21 . Fill in?
10

Give the reported IC50 for Cn1cc2c(n1)c(=O)n(-c1cccc(O)c1)c1nc(C(F)(F)F)ccc21 (system: MAT2A recombinant protein (Homo sapiens, UniProt P31153)).
24.6

Under MAT2A recombinant protein (Homo sapiens, UniProt P31153): IC50 value of Cn1cc2c(n1)c(=O)n(-c1cccc(C(F)F)c1)c1nc(C(F)(F)F)ccc21 ?
43.7
